ASSAY METHOD TEXT: Plasma concentration in nude CD1 mouse at 1 mg/kg, po measured after 4 hrs
Type: ADME, organism-based
Set-up: dose 1 mg/kg, route oral
ASSAY METRIC: concentration at 4 h
For clarity, give the value followed by its unit.

Q: Sample CC(C)N1CCN(c2cnc3ccc(-c4cnc(Cl)c(NS(=O)(=O)c5ccc(F)cc5)c4)cc3n2)CC1 — what was its concentration at 4 h?
Result: 417 ng/mL

Q: Sample O=S(=O)(Nc1cc(-c2ccc3ncc(N4CCOCC4)nc3c2)cnc1Cl)c1ccc(F)cc1 — what was its concentration at 4 h?
Result: 1730 ng/mL

---

ASSAY METHOD TEXT: in vitro
TEST PARAMETERS: human, liver microsomes
Description: Clearance in human liver microsomes assessed as compound remaining at 1 uM after 30 mins
ASSAY METRIC: microsomal CLint at 0.5 h, 1 µM (µL/min/mg)
Number in µL/min/mg, nothing else.

# annotated cases, reported microsomal CLint at 0.5 h, 1 µM shown
Q: Sample CC(C)N1CCN(c2cnc3ccc(-c4cnc(Cl)c(NS(=O)(=O)c5ccc(F)cc5)c4)cc3n2)CC1 — what was its microsomal CLint at 0.5 h, 1 µM?
Result: 31

Q: Sample O=S(=O)(Nc1cc(-c2ccc3nccc(N4CCN(Cc5ccncc5)CC4)c3c2)cnc1Cl)c1ccc(F)cc1 — what was its microsomal CLint at 0.5 h, 1 µM?
Result: 247

Now for another entry.
Q: Sample O=S(=O)(Nc1cc(-c2ccc3ncc(NCCN4CCCCC4)nc3c2)cnc1Cl)c1ccc(F)cc1 — what was its microsomal CLint at 0.5 h, 1 µM?
Result: 25

---

Measured microsomal CLint at 0.5 h, 1 µM, listed per entry.
ASSAY METHOD TEXT: in vitro
TEST PARAMETERS: rat, liver microsomes
Description: Clearance in rat liver microsomes assessed as compound remaining at 1 uM after 30 mins
Number in µL/min/mg, nothing else.

# annotated cases, reported microsomal CLint at 0.5 h, 1 µM shown
Q: Sample O=S(=O)(Nc1cc(-c2ccc3nccc(-c4ccncc4)c3c2)cnc1Cl)c1ccc(F)cc1 — what was its microsomal CLint at 0.5 h, 1 µM?
Result: 20

Q: Sample CC(C)N1CCN(c2cnc3ccc(-c4cnc(Cl)c(NS(=O)(=O)c5ccc(F)cc5)c4)cc3n2)CC1 — what was its microsomal CLint at 0.5 h, 1 µM?
Result: 32

Q: Sample O=S(=O)(Nc1cc(-c2ccc3nccc(-c4cccnc4)c3c2)cnc1Cl)c1ccc(F)cc1 — what was its microsomal CLint at 0.5 h, 1 µM?
Result: 33

Now for another entry.
Q: Sample O=S(=O)(Nc1cc(-c2ccc3ncc(N4CCOCC4)nc3c2)cnc1Cl)c1ccc(F)cc1 — what was its microsomal CLint at 0.5 h, 1 µM?
Result: 16

---

ASSAY METHOD TEXT: in vivo
TEST PARAMETERS: nude CD1, mouse, plasma, po, 3 mg/kg
Description: Plasma concentration in nude CD1 mouse at 3 mg/kg, po measured after 3 hrs
ASSAY METRIC: concentration at 3 h (ng/mL)
Number in ng/mL, nothing else.

Q: Sample O=S(=O)(Nc1cc(-c2ccc3nccc(-c4cccnc4)c3c2)cnc1Cl)c1ccc(F)cc1 — what was its concentration at 3 h?
Result: 2330

---
Q: Sample O=S(=O)(Nc1cc(-c2ccc3nccc(-c4ccncc4)c3c2)cnc1Cl)c1ccc(F)cc1 — what was its concentration at 3 h?
Result: 2470

---

ASSAY METHOD TEXT: in vivo
TEST PARAMETERS: Sprague-Dawley, rat, iv, 1 mg/kg
Description: Clearance in Sprague-Dawley rat at 1 mg/kg, iv
ASSAY METRIC: clearance (mL/min/kg)
Number in mL/min/kg, nothing else.

# annotated cases, reported clearance shown
Q: Sample CC(C)N1CCN(c2cnc3ccc(-c4cnc(Cl)c(NS(=O)(=O)c5ccc(F)cc5)c4)cc3n2)CC1 — what was its clearance?
Result: 1.33

Q: Sample O=S(=O)(Nc1cc(-c2ccc3nccc(-c4cccnc4)c3c2)cnc1Cl)c1ccc(F)cc1 — what was its clearance?
Result: 2.17

Q: Sample O=S(=O)(Nc1cc(-c2ccc3nccc(-c4ccncc4)c3c2)cnc1Cl)c1ccc(F)cc1 — what was its clearance?
Result: 0.667

---
Q: Sample O=S(=O)(Nc1cc(-c2ccc3ncc(N4CCOCC4)nc3c2)cnc1Cl)c1ccc(F)cc1 — what was its clearance?
Result: 0.333

---

TARGET OR TEST SYSTEM: Phosphatidylinositol 4,5-bisphosphate 3-kinase catalytic subunit alpha isoform (Homo sapiens)
ASSAY METRIC: pKi
Note: pKi values are expressed as the negative base-10 logarithm of concentration in M.

# annotated cases, reported pKi shown
Q: Sample CC(C)N1CCN(c2cnc3ccc(-c4cnc(Cl)c(NS(=O)(=O)c5ccc(F)cc5)c4)cc3n2)CC1 — what was its pKi?
Result: 9.10

Q: Sample O=S(=O)(Nc1cc(-c2ccc3ncccc3c2)cnc1Cl)c1ccc(F)cc1 — what was its pKi?
Result: 8.68

Q: Sample O=S(=O)(Nc1cc(-c2ccc3nccc(N4CCN(Cc5ccccc5)CC4)c3c2)cnc1Cl)c1ccc(F)cc1 — what was its pKi?
Result: 9.00

Q: Sample O=S(=O)(Nc1cc(-c2ccc3ncc(N4C[C@H]5CC[C@H](CC5)C4)nc3c2)cnc1Cl)c1ccc(F)cc1 — what was its pKi?
Result: 9.00

Q: Sample O=S(=O)(Nc1cc(-c2ccc3nccc(N4CCC(O)CC4)c3c2)cnc1Cl)c1ccc(F)cc1 — what was its pKi?
Result: 9.05

Q: Sample O=S(=O)(Nc1cc(-c2ccc3nccc(-c4ccccc4)c3c2)cnc1Cl)c1ccc(F)cc1 — what was its pKi?
Result: 8.89

Q: Sample O=S(=O)(Nc1cc(-c2ccc3nccc(N4CCN(Cc5ccncc5)CC4)c3c2)cnc1Cl)c1ccc(F)cc1 — what was its pKi?
Result: 9.05

Q: Sample COCCNc1ccnc2ccc(-c3cnc(Cl)c(NS(=O)(=O)c4ccc(F)cc4)c3)cc12 — what was its pKi?
Result: 7.16

---
Q: Sample O=S(=O)(Nc1cc(-c2cnc3ncccc3c2)cnc1Cl)c1ccc(F)cc1 — what was its pKi?
Result: 6.07

---

ASSAY METHOD TEXT: in vivo
TEST PARAMETERS: Sprague-Dawley, rat, iv, 1 mg/kg
Description: Volume of distribution at steady-state in Sprague-Dawley rat at 1 mg/kg, iv
ASSAY METRIC: Vd
For clarity, give the value followed by its unit.

Q: Sample O=S(=O)(Nc1cc(-c2ccc3nccc(-c4cccnc4)c3c2)cnc1Cl)c1ccc(F)cc1 — what was its Vd?
Result: 0.81 L/kg

Q: Sample O=S(=O)(Nc1cc(-c2ccc3nccc(-c4ccncc4)c3c2)cnc1Cl)c1ccc(F)cc1 — what was its Vd?
Result: 0.52 L/kg

Q: Sample O=S(=O)(Nc1cc(-c2ccc3ncc(N4CCOCC4)nc3c2)cnc1Cl)c1ccc(F)cc1 — what was its Vd?
Result: 0.19 L/kg

Now for another entry.
Q: Sample CC(C)N1CCN(c2cnc3ccc(-c4cnc(Cl)c(NS(=O)(=O)c5ccc(F)cc5)c4)cc3n2)CC1 — what was its Vd?
Result: 0.4 L/kg

---

TARGET OR TEST SYSTEM: Serine/threonine-protein kinase mTOR (Homo sapiens, UniProt P42345)
ASSAY METRIC: pIC50
Note: pIC50 values are expressed as the negative base-10 logarithm of concentration in M.

Q: Sample O=S(=O)(Nc1cc(-c2ccc3ncc(N4CCOCC4)nc3c2)cnc1Cl)c1ccc(F)cc1 — what was its pIC50?
Result: 8.30

---

TARGET OR TEST SYSTEM: Phosphatidylinositol 4,5-bisphosphate 3-kinase catalytic subunit alpha isoform (Homo sapiens, UniProt P42336)
Sequence (P42336 whole entry, canonical isoform): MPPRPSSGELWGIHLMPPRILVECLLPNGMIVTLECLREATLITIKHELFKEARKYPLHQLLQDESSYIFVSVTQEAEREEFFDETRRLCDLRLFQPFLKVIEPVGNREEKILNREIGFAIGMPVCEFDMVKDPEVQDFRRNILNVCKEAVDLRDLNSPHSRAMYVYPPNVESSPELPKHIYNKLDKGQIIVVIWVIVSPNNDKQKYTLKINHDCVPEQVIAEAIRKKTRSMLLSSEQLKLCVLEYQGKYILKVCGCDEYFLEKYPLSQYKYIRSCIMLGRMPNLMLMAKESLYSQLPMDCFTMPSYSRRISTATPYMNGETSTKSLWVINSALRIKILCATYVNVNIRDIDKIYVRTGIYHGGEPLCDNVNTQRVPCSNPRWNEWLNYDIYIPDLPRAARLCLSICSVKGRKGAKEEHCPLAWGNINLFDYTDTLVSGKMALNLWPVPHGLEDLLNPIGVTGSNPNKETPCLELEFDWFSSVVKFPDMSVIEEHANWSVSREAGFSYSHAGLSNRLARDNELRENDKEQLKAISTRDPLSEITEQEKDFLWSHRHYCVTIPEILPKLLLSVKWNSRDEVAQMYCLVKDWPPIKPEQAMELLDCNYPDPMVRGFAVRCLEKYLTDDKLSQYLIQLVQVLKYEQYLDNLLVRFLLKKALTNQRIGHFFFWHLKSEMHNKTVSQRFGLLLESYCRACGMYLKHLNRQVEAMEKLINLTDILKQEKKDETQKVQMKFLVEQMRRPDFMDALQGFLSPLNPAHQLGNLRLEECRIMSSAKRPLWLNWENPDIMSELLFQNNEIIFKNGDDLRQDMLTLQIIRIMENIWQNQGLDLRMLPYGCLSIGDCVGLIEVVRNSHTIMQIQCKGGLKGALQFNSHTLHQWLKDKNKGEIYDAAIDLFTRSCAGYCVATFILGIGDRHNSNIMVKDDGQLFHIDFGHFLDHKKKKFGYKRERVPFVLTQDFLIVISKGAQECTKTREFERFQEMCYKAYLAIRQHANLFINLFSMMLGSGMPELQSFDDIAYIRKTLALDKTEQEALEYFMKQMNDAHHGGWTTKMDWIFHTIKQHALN
ASSAY METRIC: pIC50
Note: pIC50 values are expressed as the negative base-10 logarithm of concentration in M.

Q: Sample O=S(=O)(Nc1cc(-c2ccc3nccc(N4CCN(Cc5ccncc5)CC4)c3c2)cnc1Cl)c1ccc(F)cc1 — what was its pIC50?
Result: 8.34

---

Measured IC50, listed per entry.
TARGET OR TEST SYSTEM: Phosphatidylinositol 4,5-bisphosphate 3-kinase catalytic subunit beta isoform (Homo sapiens, UniProt P42338)
Sequence (P42338 whole entry, canonical isoform): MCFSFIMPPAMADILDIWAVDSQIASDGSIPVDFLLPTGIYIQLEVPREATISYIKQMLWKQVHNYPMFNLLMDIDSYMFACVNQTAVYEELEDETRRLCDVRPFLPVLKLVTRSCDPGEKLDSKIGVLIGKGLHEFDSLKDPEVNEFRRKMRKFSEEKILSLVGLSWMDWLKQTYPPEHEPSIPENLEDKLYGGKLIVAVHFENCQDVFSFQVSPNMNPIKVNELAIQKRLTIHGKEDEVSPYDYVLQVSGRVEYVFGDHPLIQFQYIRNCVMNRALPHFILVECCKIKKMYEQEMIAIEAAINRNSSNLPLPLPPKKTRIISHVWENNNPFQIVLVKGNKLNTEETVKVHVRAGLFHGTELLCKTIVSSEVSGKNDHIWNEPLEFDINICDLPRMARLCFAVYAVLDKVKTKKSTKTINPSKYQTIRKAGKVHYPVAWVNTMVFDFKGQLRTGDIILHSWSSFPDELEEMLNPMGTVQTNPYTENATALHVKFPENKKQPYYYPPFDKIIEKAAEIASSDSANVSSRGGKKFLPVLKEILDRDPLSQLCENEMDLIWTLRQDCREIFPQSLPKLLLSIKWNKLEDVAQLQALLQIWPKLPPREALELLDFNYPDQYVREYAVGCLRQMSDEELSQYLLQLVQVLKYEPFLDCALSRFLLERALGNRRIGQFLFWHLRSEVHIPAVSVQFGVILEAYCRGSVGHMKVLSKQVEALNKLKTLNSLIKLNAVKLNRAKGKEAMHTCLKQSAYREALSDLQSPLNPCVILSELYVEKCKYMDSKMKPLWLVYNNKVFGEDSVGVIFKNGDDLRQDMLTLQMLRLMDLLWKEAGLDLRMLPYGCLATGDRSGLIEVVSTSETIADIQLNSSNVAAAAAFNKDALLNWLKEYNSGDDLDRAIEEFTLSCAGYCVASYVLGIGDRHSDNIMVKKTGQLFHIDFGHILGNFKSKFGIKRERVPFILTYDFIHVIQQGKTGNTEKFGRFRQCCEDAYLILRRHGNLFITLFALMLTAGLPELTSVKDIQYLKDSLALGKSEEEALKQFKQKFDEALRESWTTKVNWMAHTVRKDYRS

# annotated cases, reported IC50 shown
Q: Sample O=S(=O)(Nc1cc(-c2ccc3nccc(N4CCN(Cc5ccncc5)CC4)c3c2)cnc1Cl)c1ccc(F)cc1 — what was its IC50?
Result: 0.015 µM

Q: Sample O=S(=O)(Nc1cc(-c2ccc3nccc(-c4cccnc4)c3c2)cnc1Cl)c1ccc(F)cc1 — what was its IC50?
Result: 0.01 µM

Q: Sample O=S(=O)(Nc1cc(-c2ccc3nccc(-c4ccncc4)c3c2)cnc1Cl)c1ccc(F)cc1 — what was its IC50?
Result: 0.015 µM

Now for another entry.
Q: Sample O=S(=O)(Nc1cc(-c2ccc3ncc(NCCN4CCOCC4)nc3c2)cnc1Cl)c1ccc(F)cc1 — what was its IC50?
Result: 0.0098 µM

---

Measured concentration at 4 h, listed per entry.
ASSAY METHOD TEXT: Plasma concentration in nude CD1 mouse at 0.3 mg/kg, po measured after 4 hrs
Format: ADME, organism-based
Parameters: dose 0.3 mg/kg, route oral
Number in ng/mL, nothing else.

Q: Sample CC(C)N1CCN(c2cnc3ccc(-c4cnc(Cl)c(NS(=O)(=O)c5ccc(F)cc5)c4)cc3n2)CC1 — what was its concentration at 4 h?
Result: 155

---
Q: Sample O=S(=O)(Nc1cc(-c2ccc3ncc(N4CCOCC4)nc3c2)cnc1Cl)c1ccc(F)cc1 — what was its concentration at 4 h?
Result: 448
